System: NC37
Assay: Inhibition of cell proliferation (MTT)
Assay type: cell-based
Conditions: Homo sapiens, NC-37; NC37, Lymphoma; 48 hours
Recorded Endpoint: EC50

State the recorded EC50 for this entry: CN1CCC[C@H]1CCNC(=O)c1cn2c3c(c(N4CCC(c5cnccn5)C4)c(F)cc3c1=O)Oc1cc3ccccc3cc1-2 (stereo partly shown) 1260 nM

----------
System: HH
Experiment: Inhibition of cell proliferation (MTT)
Type: cell-based
Details: Homo sapiens, Lymphoma, 48 hours
Recorded Endpoint: EC50 (µM)
Numbers only, in µM.

State the recorded EC50 for this entry: CN1CCC[C@H]1CCNC(=O)c1cn2c3c(c(N4CCC(c5cnccn5)C4)c(F)cc3c1=O)Oc1cc3ccccc3cc1-2 (stereo partly shown) [TA1-1B] 4.04

Data origin: patent US20080318938A1
